Documented TGI HT-29 across a set of molecules
Tested on: HT-29
Test: SRB colorimetric assay of cell growth and viability, HT-29
Format: cell-based, human
Conditions: 48 hours exposure
Where a SMILES comes first, the peptide text is derived from it. Bridges are numbered along the chain shown (N, C = ends). [ ]: non-standard residue; d: D form. The star is where a group is joined. d(aIle) = CC[C@H](C)[C@@H](N)C(=O)O; d(aThr) = C[C@@H](O)[C@@H](N)C(=O)O; Hexanoyl(5-Me) = CC(C)CCCC(=O)*; Orn = NCCC[C@H](N)C(=O)O; Dhb = C/C=C(\N)C(=O)O
Readout label: TGI HT-29 (Molar)

* C/C=C1\NC(=O)[C@H](Cc2ccccc2)NC(=O)[C@@H](C(C)C)NC(=O)[C@@H]([C@@H](C)CC)NC(=O)[C@H](NC(=O)[C@H](NC(=O)[C@H](CCCN)NC(=O)[C@H]2CCCN2C(=O)[C@H](NC(=O)[C@@H](NC(=O)[C@H](C)NC(=O)CCCC(C)C)C(C)C)C(C)C)[C@@H](C)CC)[C@@H](C)OC(=O)[C@H](C(C)C)NC1=O [Compound 52, [Ala^12, noD-Val^13]-KF] ({Hexanoyl(5-Me)}-AV[dV][dP][Orn][d(aIle)][d(aThr)][d(aIle)][dV]F[Dhb]V; ester 7-C) | 7.41E−06
* C/C=C1\NC(=O)[C@H](Cc2ccccc2)NC(=O)[C@@H](C(C)C)NC(=O)[C@@H]([C@@H](C)CC)NC(=O)[C@H](NC(=O)[C@H](NC(=O)[C@H](CCCN)NC(=O)[C@H]2CCCN2C(=O)[C@H](NC(=O)[C@@H](NC(=O)[C@@H](NC(=O)[C@H](NC(=O)CCCC(C)C)C(C)C)[C@@H](C)O)C(C)C)C(C)C)[C@@H](C)CC)[C@H](C)OC(=O)[C@H](C(C)C)NC1=O [Compound 2, [D-Thr^6]-KF] | 6.77E−06
* C/C=C1\NC(=O)[C@H](Cc2ccccc2)NC(=O)[C@@H](C(C)C)NC(=O)[C@@H]([C@@H](C)CC)NC(=O)[C@H](NC(=O)[C@H](NC(=O)[C@H](CCCN)NC(=O)[C@H]2CCCN2C(=O)[C@H](NC(=O)[C@H](NC(=O)[C@@H](NC(=O)[C@H](NC(=O)CCCC(C)C)C(C)C)[C@@H](C)O)C(C)C)C(C)C)[C@@H](C)CC)[C@@H](C)OC(=O)[C@H](C(C)C)NC1=O [Compound 46, [D-Val^11]-KF] | 6.77E−06
* C/C=C1\NC(=O)[C@H](Cc2ccccc2)NC(=O)[C@@H](C(C)C)NC(=O)[C@@H]([C@@H](C)CC)NC(=O)[C@H](NC(=O)[C@H](NC(=O)[C@H](CCCN)NC(=O)[C@H]2CCCN2C(=O)[C@H](NC(=O)[C@H](CCC(=O)O)NC(=O)[C@@H](NC(=O)[C@H](NC(=O)CCCC(C)C)C(C)C)[C@@H](C)O)C(C)C)[C@@H](C)CC)[C@@H](C)OC(=O)[C@H](C(C)C)NC1=O [Compound 51, [Glu^11]-KF] ({Hexanoyl(5-Me)}-[dV]TE[dV][dP][Orn][d(aIle)][d(aThr)][d(aIle)][dV]F[Dhb]V; ester 8-C) | 6.63E−06
* C/C=C1\NC(=O)[C@H](Cc2ccccc2)NC(=O)[C@@H](C(C)C)NC(=O)[C@@H]([C@@H](C)CC)NC(=O)[C@H](NC(=O)[C@H](NC(=O)[C@H](CCCN)NC(=O)[C@H]2CCCN2C(=O)[C@H](NC(=O)[C@@H](NC(=O)[C@@H](NC(=O)[C@H]2CCCN2C(=O)CCCC(C)C)[C@@H](C)O)C(C)C)C(C)C)[C@@H](C)CC)[C@@H](C)OC(=O)[C@H](C(C)C)NC1=O [Compound 37, [D-Pro^13]-KF] | 6.78E−06
